Test system: Ba/F3 cells expressing EGFR mutations
Assay: Cell proliferation assay, Ba/F3 cells expressing EGFR mutations (CellTiter-Glo, 72 hours)
Type: cell-based
Details: BaF3 cells, EGFR L858R-T790M, CellTiter-Glo, read-out: L858R-T790M/BaF3 GI50
measured.endpoint: GI50 (nM)

molecule: CN1CCC2(CN(c3ccc4nc5n(c4c3)C34CCC(CN(CCOc6c(cnn6C)-c6cc(cn(C)c6=O)C(=O)N5)C3)C4)C2)C(F)(F)C1 (single isomer, unassigned) [Example A91B]
GI50, nM: 11
//
molecule: CN1C2CC1CN(c1ccc3nc4n(c3c1)C13CCC(CN(CCOc5c(cnn5C)-c5cc(cn(C)c5=O)C(=O)N4)C1)C3)C2 (single isomer, unassigned) [Example A98B]
GI50, nM: 3
//
molecule: CC(C)N1CCN(c2ccc3nc4n(c3c2)C23CCC(CN(CCOc5c(cnn5C)-c5cc(cn(C)c5=O)C(=O)N4)C2)C3)CC1 (single isomer, unassigned) [Example A108A]
GI50, nM: 369
//
molecule: CN1CCN(C2CN(c3ccc4nc5n(c4c3)C34CCC(CN(CCOc6c(cnn6C)-c6cc(cn(C)c6=O)C(=O)N5)C3)C4)C2)CC1 (single isomer, unassigned) [Example A70B]
GI50, nM: 5.9
//
molecule: Cn1ncc2c1OCCN1CC3CCC(C3)(C1)n1c(nc3ccc(N4CC(N5CCOCC5)C4)cc31)NC(=O)c1cc-2c(=O)n(C)c1 (single isomer, unassigned) [Example A69B]
GI50, nM: 10

a. CN(C)CCCN(C)c1ccc2nc3n(c2c1)C12CCC(CN(CCOc4c(cnn4C)-c4cc(cn(C)c4=O)C(=O)N3)C1)C2 (single isomer, unassigned) [Example A89A]
b. CN(C)C1CCN(c2ccc3nc4n(c3c2)C23CCC(CN(CCOc5c(cnn5C)-c5cc(cn(C)c5=O)C(=O)N4)C2)C3)CC1(F)F (single isomer, unassigned) [Example A97B]
c. CN1CCN(C2CCN(c3ccc4nc5n(c4c3)C34CCC(CN(CCOc6c(cnn6C)-c6cc(cn(C)c6=O)C(=O)N5)C3)C4)CC2)CC1 (single isomer, unassigned) [Example A106B]
d. CN1CCC12CCN(c1ccc3nc4n(c3c1)C13CCC(CN(CCOc5c(cnn5C)-c5cc(cn(C)c5=O)C(=O)N4)C1)C3)CC2 (single isomer, unassigned) [Example A67B]
e. CN1CCN(C2CN(c3ccc4nc5n(c4c3)C34CCC(CN(CCOc6c(cnn6C)-c6cc(cn(C)c6=O)C(=O)N5)C3)C4)C2)CC1 (single isomer, unassigned) [Example A70A]
Q) Ranking field: GI50; order: falling. Form entry: labels listed in requested order.
A) e, a, b, d, c
(e: 1870 nM, a: 367 nM, b: 13 nM, d: 3.5 nM, c: 1.1 nM)

* * *

Biological target: EGFR Exon19Del (Homo sapiens, UniProt P00533, DEL746-750)
Construct: purchased Carna Bio
Sequence (P00533 with tags, fused parts or gaps DEL746-750 limits assumed): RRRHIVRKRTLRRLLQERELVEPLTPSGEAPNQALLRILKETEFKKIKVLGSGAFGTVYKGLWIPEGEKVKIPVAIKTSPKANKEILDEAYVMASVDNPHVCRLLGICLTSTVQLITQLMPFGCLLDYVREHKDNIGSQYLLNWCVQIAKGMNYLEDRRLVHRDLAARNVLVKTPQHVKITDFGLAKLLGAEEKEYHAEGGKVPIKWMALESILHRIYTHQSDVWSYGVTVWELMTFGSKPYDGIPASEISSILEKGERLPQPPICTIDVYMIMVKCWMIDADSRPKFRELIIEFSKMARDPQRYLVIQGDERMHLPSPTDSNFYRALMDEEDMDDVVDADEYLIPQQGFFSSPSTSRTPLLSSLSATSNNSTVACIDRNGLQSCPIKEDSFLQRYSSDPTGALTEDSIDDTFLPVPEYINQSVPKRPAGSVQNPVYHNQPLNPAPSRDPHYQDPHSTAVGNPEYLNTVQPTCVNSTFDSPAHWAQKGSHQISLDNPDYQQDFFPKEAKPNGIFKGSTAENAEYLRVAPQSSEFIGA
Assay: Inhibition of EGFR Exon19Del biochemical enzymatic activity (HTRF)
Conditions: EGFR Exon19Del, 1 mM ATP, 1 h at room temperature, read-out: IC50 @Del19
measured.endpoint: IC50 (µM)

compound: Cc1cc2cc(n1)-c1cnn(C)c1OCCN1CC3CCC(CC3)(C1)n1c(nc3ccc(N4CC5CN(C)CC5C4)cc31)NC2=O (stereo not drawn)
target.system: EGFR Exon19Del (Homo sapiens, UniProt P00533, DEL746-750)
unit.text: µM
IC50: 0.039

compound: CCN1CCN(c2ccc3nc4n(c3c2)C23CCC(CN(CCOc5c(cnn5C)-c5cc(cc(C)n5)C(=O)N4)C2)C3)CC1 (single isomer, unassigned) [Example B56A]
target.system: EGFR Exon19Del (Homo sapiens, UniProt P00533, DEL746-750)
unit.text: µM
IC50: 3.18

compound: Cc1cc2cc(n1)-c1cnn(C)c1OCCN1CC3CCC(CC3)(C1)n1c(nc3ccc(N4CCN(C5CC5)CC4)cc31)NC2=O
target.system: EGFR Exon19Del (Homo sapiens, UniProt P00533, DEL746-750)
unit.text: µM
IC50: 0.024

P. Cc1cc2cc(n1)-c1cnn(C)c1OCCN1CC3CCC(CC3)(C1)n1c(nc3ccc(N(C)CCN(C)C)cc31)NC2=O
Q. Cc1cc2cc(n1)-c1cnn(C)c1OCCN1CC3CCC(C3)(C1)n1c(nc3ccc(N4CCN(C(C)C)CC4)cc31)NC2=O (single isomer, unassigned) [Example B57B]
Q) Returns: the label, P or Q , whose recorded IC50 is the lower number. Choose, then provide that item's label.
A) Q
(Q: 0.0061 µM, P: 0.017 µM)

* * *

Target: EGFR[T790M/C797S/d746-750] (Homo sapiens, UniProt P00533, C797S/DEL746-750/T790M)
Construct: purchased Carna Bio
Sequence (P00533 with tags, fused parts or gaps DEL746-750/T790M/C797S limits assumed): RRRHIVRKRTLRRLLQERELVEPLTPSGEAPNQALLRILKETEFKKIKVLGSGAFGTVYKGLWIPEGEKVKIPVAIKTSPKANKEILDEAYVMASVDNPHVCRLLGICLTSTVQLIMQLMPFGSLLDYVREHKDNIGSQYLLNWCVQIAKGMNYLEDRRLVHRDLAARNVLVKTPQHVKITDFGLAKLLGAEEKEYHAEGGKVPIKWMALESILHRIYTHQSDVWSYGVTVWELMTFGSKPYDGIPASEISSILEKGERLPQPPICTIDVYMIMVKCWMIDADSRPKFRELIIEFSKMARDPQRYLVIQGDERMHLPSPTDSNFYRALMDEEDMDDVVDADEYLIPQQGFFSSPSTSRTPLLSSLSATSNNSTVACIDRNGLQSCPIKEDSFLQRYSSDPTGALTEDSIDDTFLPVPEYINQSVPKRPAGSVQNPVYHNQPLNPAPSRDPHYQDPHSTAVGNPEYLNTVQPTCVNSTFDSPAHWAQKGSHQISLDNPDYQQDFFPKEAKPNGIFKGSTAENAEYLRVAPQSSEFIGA
Test: Inhibition of EGFR[T790M/C797S/d746-750] biochemical enzymatic activity (HTRF)
Conditions: EGFR T790M-C797S-Del19, 1 mM ATP, 1 h, room temperature, read-out: IC50 (nM) @T790M - C797S - Del19
measured.endpoint: IC50 (nM)

compound: CN(C)C1CCN(c2ccc3nc4n(c3c2)C23CCC(CN(CCOc5c(cnn5C)-c5cc(cn(C)c5=O)C(=O)N4)C2)C3)CC1 (single isomer, unassigned) [Example A64B]
target.system: EGFR[T790M/C797S/d746-750] (Homo sapiens, UniProt P00533, C797S/DEL746-750/T790M)
IC50, nM: 2

A. C[C@@H]1CCCOc2cc(F)c(F)cc2-c2cc(cn(C)c2=O)C(=O)Nc2nc3ccc(N4CCN(C)CC4)cc3n2C1 [Example A111]
B. C[C@@H]1CCCOc2c(cnn2C)-c2cc(cn(C)c2=O)C(=O)Nc2nc3ccc4c(c3n2C1)CCN(C)C4 [Example A103]
Q) Which shows the larger IC50 value: A or B ? Select an item and report its label.
A) A
(A: 47 nM, B: 1.3 nM)

I. CCN1CCN(c2ccc3nc4n(c3c2)C23CCC(CN(CCOc5c(cnn5C)-c5cc(cn(C)c5=O)C(=O)N4)C2)C3)CC1 (single isomer, unassigned) [Example A107B]
II. Cn1ncc2c1OCCN1CC3CCC(CC3)(C1)n1c(nc3ccccc31)NC(=O)c1cc-2c(=O)n(C)c1 [Example A100]
III. CCC1CCCOc2c(cnn2C)-c2cc(cn(C)c2=O)C(=O)Nc2nc3ccc(N4CCN(C)CC4)cc3n2C1 (single isomer, unassigned) [Example A16B]
Q) Order field: IC50 | Direction: descending (largest first) Give the labels in the order requested.
A) II, III, I

* * *

Tested on: Ba/F3 cells expressing EGFR mutations
Assay: Cell proliferation assay, Ba/F3 cells expressing EGFR mutations (CellTiter-Glo, 72 hours)
Type: cell-based
Details: Mus musculus, BaF3, 72 h, EGFR DEL19 - T790M, read-out: GI50 DEL19 - T790M
measured.endpoint: GI50 (nM)

compound: Cn1ncc2c1OCCN1CC3CCC(CC3)(C1)n1c(nc3cc(F)ccc31)NC(=O)c1cc-2c(=O)n(C)c1 [Example A116]
GI50 / nM: 157
//
compound: CN(C)[C@@H]1CCN(c2ccc3nc4n(c3c2)C23CCC(CC2)CN(CCOc2c(cnn2C)-c2cc(cn(C)c2=O)C(=O)N4)C3)C1 [Example A121]
GI50 / nM: 25

P. Cc1cc2cc(n1)-c1cnn(C)c1OCCCCCn1c(nc3ccc4c(c31)CN(C1COC1)CC4)NC2=O [Example B18]
Q. Cc1cc2cc(n1)-c1cnn(C)c1OCCN1CC3CCC(C3)(C1)n1c(nc3ccc(N4CCN(C)CC4)cc31)NC2=O (stereo not drawn) [Example B9B]
R. Cc1cc2cc(n1)-c1cc(=O)n(C)cc1OCCC[C@@H](C)Cn1c(nc3ccccc31)NC2=O [Example B11]
S. Cc1cc2cc(n1)-c1cnn(C)c1OCCN1CC3CCC(CC3)(C1)n1c(nc3ccc(N4CC5CCN(C)C5C4)cc31)NC2=O (stereo not drawn) [Example B35]
Q) Order the entries by their reported GI50, beginning at the minimum. API: response body holds the labels in the requested order.
A) Q, S, P, R

* * *

Biological target: EGFR[T790M/C797S/L858R] (Homo sapiens, UniProt P00533, C797S/L858R/T790M)
Construct: purchased Carna Bio
Sequence (P00533 25-1210 T790M/C797S/L858R): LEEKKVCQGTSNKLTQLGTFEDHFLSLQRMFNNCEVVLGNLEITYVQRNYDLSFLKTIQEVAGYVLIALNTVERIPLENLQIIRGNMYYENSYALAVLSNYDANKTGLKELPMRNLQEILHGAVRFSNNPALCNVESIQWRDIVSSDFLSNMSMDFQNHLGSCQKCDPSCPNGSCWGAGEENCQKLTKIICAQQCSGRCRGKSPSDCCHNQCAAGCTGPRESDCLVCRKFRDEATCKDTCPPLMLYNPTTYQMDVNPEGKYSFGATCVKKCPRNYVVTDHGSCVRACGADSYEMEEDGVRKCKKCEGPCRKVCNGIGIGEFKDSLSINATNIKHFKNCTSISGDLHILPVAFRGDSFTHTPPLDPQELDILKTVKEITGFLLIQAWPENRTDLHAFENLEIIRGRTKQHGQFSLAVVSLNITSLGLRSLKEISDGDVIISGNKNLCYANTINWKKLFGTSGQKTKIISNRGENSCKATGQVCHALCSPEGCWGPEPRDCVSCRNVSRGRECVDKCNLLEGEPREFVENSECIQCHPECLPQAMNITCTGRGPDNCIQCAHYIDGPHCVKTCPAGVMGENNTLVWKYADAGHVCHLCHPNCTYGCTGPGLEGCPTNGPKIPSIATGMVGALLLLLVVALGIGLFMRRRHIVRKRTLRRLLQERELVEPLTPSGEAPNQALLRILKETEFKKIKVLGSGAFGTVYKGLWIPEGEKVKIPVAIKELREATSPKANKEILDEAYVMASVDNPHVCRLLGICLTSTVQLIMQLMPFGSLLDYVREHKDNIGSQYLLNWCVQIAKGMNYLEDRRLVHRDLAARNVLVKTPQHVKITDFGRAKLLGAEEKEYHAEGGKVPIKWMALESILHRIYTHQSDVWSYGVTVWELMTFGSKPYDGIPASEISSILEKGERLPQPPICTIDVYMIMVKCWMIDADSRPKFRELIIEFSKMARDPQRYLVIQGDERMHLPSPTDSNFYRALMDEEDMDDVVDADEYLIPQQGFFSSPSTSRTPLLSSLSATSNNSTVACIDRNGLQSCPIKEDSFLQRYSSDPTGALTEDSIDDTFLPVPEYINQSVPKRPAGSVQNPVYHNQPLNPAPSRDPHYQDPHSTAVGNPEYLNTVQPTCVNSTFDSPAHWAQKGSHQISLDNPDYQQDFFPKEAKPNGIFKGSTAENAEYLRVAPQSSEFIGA
Assay: Inhibition of EGFR[T790M/C797S/L858R] biochemical enzymatic activity (HTRF)
Settings: EGFR[T790M/C797S/L858R], 1 mM ATP, 1 h at room temperature, read-out: IC50 @T790M- C797S - L858R
measured.endpoint: IC50 (nM)

molecule: Cc1cc2cc(n1)-c1cnn(C)c1OCCN1CC3CCC(CC3)(C1)n1c(nc3ccc(N4CC5CCN(C)C5C4)cc31)NC2=O (centres unmarked)
IC50 [nM]: 5
//
molecule: Cc1cc2cc(n1)-c1cnn(C)c1OCCN1CC3CCC(C3)(C1)n1c(nc3ccccc31)NC2=O (centres unmarked) [Example B8B]
IC50 [nM]: 1
//
molecule: Cc1cc2cc(n1)-c1cnn(C)c1OCCN1CC3CCC(C3)(C1)n1c(nc3ccc(N4CC[C@H](N(C)C)C4)cc31)NC2=O (single isomer, unassigned) [Example B41B]
IC50 [nM]: 2.2
//
molecule: Cc1cc2cc(n1)-c1cnn(C)c1OCCN1CC3CCC(C3)(C1)n1c(nc3ccc(N4CCN(C5CC5)CC4)cc31)NC2=O (single isomer, unassigned) [Example B55B]
IC50 [nM]: 1.5
//
molecule: Cc1cc2cc(n1)-c1cnn(C)c1OCCN1CC3CCC(C3)(C1)n1c(nc3ccc(N4CCN(C5COC5)CC4)cc31)NC2=O (single isomer, unassigned) [Example B58B]
IC50 [nM]: 3.1

1. Cc1cc2cc(n1)-c1cnn(C)c1OCCN1CC3CCC(CC3)(C1)n1c(nc3ccc(N(C)CCN(C)C)cc31)NC2=O
2. Cc1cc2cc(n1)-c1cnn(C)c1OCCN1CC3CCC(C3)(C1)n1c(nc3ccc(N(C)CCCN(C)C)cc31)NC2=O (single isomer, unassigned) [Example B45B]
Q) Lab notebook, comparison: 1 versus 2 , higher IC50 goes to which? Let me know the label of the one you choose.
A) 1
(1: 3.9 nM, 2: 1.4 nM)
